Consider the following molecules and their measured Percent Effect readings.
- System: Leishmania donovani
- assayInfo: Leishmania intramacrophage assay
- Type: functional, organism-based
- Parameters: scale not given: in the data most compounds retested in dose-response had high values
- statedConditions: 30.3 µM; […]
The whole screen tested about 69,000 compounds, of which about 1,000 (1.4%) showed an effect of 50% or more. The full list was thinned out, with strong results kept by preference.
reportedProperty: Percent Effect (%)

molecule=Cc1nc(-n2nc(C3CC3)cc2NC(=O)C(C)C)[nH]c(=O)c1C quantitativeresult=15.32
molecule="CC(C)NC(=O)C1(Cc2ccccc2-c2cncnc2)CCCNC1 (stereo not drawn)" quantitativeresult=16.97
molecule=CCc1c(C)nc(-n2nc(C3CC3)cc2NC(C)=O)[nH]c1=O quantitativeresult=18.69
molecule=Cc1cccc(NS(=O)(=O)c2cc(C(=O)O)oc2C)c1 quantitativeresult=8.685
molecule=CO[C@H]1CCN(C(=O)c2cc(C)on2)C[C@@H]1Cc1ccccc1 quantitativeresult=-10.42
molecule="Cc1ccc(-c2ccccc2CC2(C(=O)NC(C)C)CCCNC2)cc1 (stereo not drawn)" quantitativeresult=53.92
molecule="CC(C)NC(=O)C1(Cc2ccccc2-c2ccccc2)CCCNC1 (stereo not drawn)" quantitativeresult=40.16
molecule=Cc1cc(=O)[nH]c(-n2nc(-c3ccccc3)cc2N)n1 quantitativeresult=15.58
molecule=CNc1nc(CNC(=O)Nc2cccc(COCCOC(C)C)c2)cs1 quantitativeresult=10.56
molecule="CCc1nccn1-c1nccnc1C1CCCN(C(=O)COC)C1 (stereo not drawn)" quantitativeresult=11.67
molecule=CC(=O)Nc1cc(C2CC2)nn1-c1nc(C)c(C)c(=O)[nH]1 quantitativeresult=-16.88
molecule=CCCNC(=O)N1CCc2ccc(S(=O)(=O)N3CCOCC3)cc2C1 quantitativeresult=11.75
molecule="NCC(CO)Cc1ccc(C(F)(F)F)cc1 (stereo not drawn)" quantitativeresult=17.17
molecule="Cc1cc(N2CCCC(O)(CN(C)C)CC2)nc(-c2ccccc2)n1 (stereo not drawn)" quantitativeresult=63.47
molecule=Cc1cc(=O)[nH]c(-n2nc(C3CC3)cc2N)n1 quantitativeresult=77.1
molecule=O=C(O)C(F)(F)F.O=C(O)C(F)(F)F.c1c(CN2CCCC2)nc2n1CCN(C1CCOCC1)C2 quantitativeresult=25.13
molecule=Cc1ccccc1[C@@H]1CN(Cc2ccc(C(F)(F)F)nc2)C[C@H]1C(=O)O quantitativeresult=13.27
molecule=CCCc1cc(=O)[nH]c(-n2nc(-c3cccs3)cc2N)n1 quantitativeresult=-5.205
molecule="Cc1ccc(NC(=O)N2CCOC(C)(c3cnn(C)c3)C2)c(C)c1 (stereo not drawn)" quantitativeresult=12.13
molecule="Cc1ncsc1CCC(=O)N1CCn2cccc2C1c1cccnc1 (stereo not drawn)" quantitativeresult=18.51
molecule=CCCc1cc(=O)[nH]c(-c2cccc(CN3CCCCCC3)c2)n1 quantitativeresult=-12.61
molecule=CO[C@@H]1CCN(C(=O)c2cc(C)on2)C[C@@H]1Cc1ccccc1 quantitativeresult=52.23
molecule=O=C1NCCCc2c1oc1ccc(O)c(CN3CCOCC3)c21 quantitativeresult=56.93
